- System: GR-ST (B-Lymphoblastic Leukemia)
- assay_info: Bliss excess, mean over the matrix (fraction); higher = more synergy;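 note: after 72 h of two-drug dosing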
Threshold check on Bliss excess: at or above -0.04 gives TRUE, strictly below gives FALSE.

INSERT INTO results (molecule, assay_target, classification) VALUES
  ('CN(C)CCCOc1ccc(-c2ccc3ncc4c(c3c2)n(C2CCOCC2)c(=O)n4C)cn1 [AZD0156] + C[C@@H]1COCCN1C2=NC(=NC(=C2)C3(CC3)[S@](=N)(=O)C)C4=C5C=CNC5=NC=C4 [AZD6738] (first compound max 1 µM, 7x7, partner max 10 µM)', 'GR-ST (B-Lymphoblastic Leukemia)', 'TRUE'),
  ('NC1(C(=O)N[C@@H](CCO)c2ccc(Cl)cc2)CCN(c2ncnc3[nH]ccc23)CC1 [Capivasertib] + Cn1cnc2c(F)c(Nc3ccc(Br)cc3Cl)c(C(=O)NOCCO)cc21 [Selumetinib] (first compound max 10 µM, 7x7, partner max 10 µM)', 'GR-ST (B-Lymphoblastic Leukemia)', 'FALSE'),
  ('CN(CCO)CC[C@H](CSc1ccccc1)Nc1ccc(S(=O)(=O)NC(=O)c2ccc(N3CCC([C@@H](O)c4ccccc4-c4ccc(Cl)cc4)CC3)cc2)cc1S(=O)(=O)C(F)(F)F [AZD4320] + CS(=O)(=O)CCNCc1ccc(-c2ccc3ncnc(Nc4ccc(OCc5cccc(F)c5)c(Cl)c4)c3c2)o1 [Lapatinib] (first compound max 1 µM, 7x7, partner max 10 µM)', 'GR-ST (B-Lymphoblastic Leukemia)', 'TRUE'),
  ('NC1(C(=O)N[C@@H](CCO)c2ccc(Cl)cc2)CCN(c2ncnc3[nH]ccc23)CC1 [Capivasertib] + C[C@@H]1COCCN1C2=NC(=NC(=C2)C3(CC3)[S@](=N)(=O)C)C4=C5C=CNC5=NC=C4 [AZD6738] (first compound max 10 µM, 7x7, partner max 10 µM)', 'GR-ST (B-Lymphoblastic Leukemia)', 'TRUE'),
  ('Cc1cc2ncnn2cc1Nc1ncc2c(n1)n(C1CCOCC1)c(=O)n2C [AZD7648] + CN(C)CCCOc1ccc(-c2ccc3ncc4c(c3c2)n(C2CCOCC2)c(=O)n4C)cn1 [AZD0156] (first compound max 10 µM, 7x7, partner max 1 µM)', 'GR-ST (B-Lymphoblastic Leukemia)', 'FALSE'),
  ('CS(=O)(=O)CCNCc1ccc(-c2ccc3ncnc(Nc4ccc(OCc5cccc(F)c5)c(Cl)c4)c3c2)o1 [Lapatinib] + Cn1cnc2c(F)c(Nc3ccc(Br)cc3Cl)c(C(=O)NOCCO)cc21 [Selumetinib] (first compound max 10 µM, 7x7, partner max 10 µM)', 'GR-ST (B-Lymphoblastic Leukemia)', 'TRUE'),
  ('CN(CCO)CC[C@H](CSc1ccccc1)Nc1ccc(S(=O)(=O)NC(=O)c2ccc(N3CCC([C@@H](O)c4ccccc4-c4ccc(Cl)cc4)CC3)cc2)cc1S(=O)(=O)C(F)(F)F [AZD4320] + C[C@@H](Nc1cc(F)cc(F)c1)c1cc(C(=O)N(C)C)cc2c(=O)cc(N3CCOCC3)oc12 [AZD8186] (first compound max 1 µM, 7x7, partner max 3 µM)', 'GR-ST (B-Lymphoblastic Leukemia)', 'FALSE');

* * *

- Tested on: WM-115 (Melanoma)
- assay_info: Bliss excess, mean over the matrix (fraction); higher = more synergy
assay_readout: Bliss excess

INSERT INTO assay_data (compound, assay_readout, assay_result) VALUES
  ('NC1(C(=O)N[C@@H](CCO)c2ccc(Cl)cc2)CCN(c2ncnc3[nH]ccc23)CC1 [Capivasertib] + C[C@@H]1COCCN1C2=NC(=NC(=C2)C3(CC3)[S@](=N)(=O)C)C4=C5C=CNC5=NC=C4 [AZD6738] (first compound max 10 µM, 7x7, partner max 10 µM)', 'Bliss excess', -0.0502),
  ('CN(CCO)CC[C@H](CSc1ccccc1)Nc1ccc(S(=O)(=O)NC(=O)c2ccc(N3CCC([C@@H](O)c4ccccc4-c4ccc(Cl)cc4)CC3)cc2)cc1S(=O)(=O)C(F)(F)F [AZD4320] + Cn1cnc2c(F)c(Nc3ccc(Br)cc3Cl)c(C(=O)NOCCO)cc21 [Selumetinib] (first compound max 1 µM, 7x7, partner max 3 µM)', 'Bliss excess', 0.102),
  ('COc1cccc(OCCCN)c1-c1cc(Nc2cnc(C#N)cn2)n[nH]1 [Prexasertib] + CCc1c2c(nc3ccc(O)cc13)-c1cc3c(c(=O)n1C2)COC(=O)[C@]3(O)CC [SN-38] (first compound max 1 µM, 7x7, partner max 0.3 µM)', 'Bliss excess', -0.0492),
  ('O=C(c1cc(Cc2n[nH]c(=O)c3ccccc23)ccc1F)N1CCN(C(=O)C2CC2)CC1 [Olaparib] + CN(CC[C@H](CSC1=CC=CC=C1)NC2=C(C=C(C=C2)S(=O)(=O)NC(=O)C3=CC=C(C=C3)N4CCC(CC4)[C@H](C5=CC=CC=C5C6=CC=C(C=C6)Cl)O)S(=O)(=O)C(F)(F)F)CCO [AZD4320] (first compound max 10 µM, 7x7, partner max 1 µM)', 'Bliss excess', -0.0631),
  ('COc1nnc2ccc(N3CCC(c4ccc(OCCN5CCN(C)C(=O)[C@H]5C)cc4)CC3)nn12 [AZD5153] + CC1(C)CCC(CN2CCN(c3ccc(C(=O)NS(=O)(=O)c4ccc(NCC5CCOCC5)c([N+](=O)[O-])c4)c(Oc4cnc5[nH]ccc5c4)c3)CC2)=C(c2ccc(Cl)cc2)C1 [Venetoclax] (first compound max 1 µM, 7x7, partner max 1 µM)', 'Bliss excess', -0.0717),
  ('CS(=O)(=O)CCNCc1ccc(-c2ccc3ncnc(Nc4ccc(OCc5cccc(F)c5)c(Cl)c4)c3c2)o1 [Lapatinib] + Cn1cnc2c(F)c(Nc3ccc(Br)cc3Cl)c(C(=O)NOCCO)cc21 [Selumetinib] (first compound max 10 µM, 7x7, partner max 10 µM)', 'Bliss excess', 0.0205),
  ('O=C(c1cc(Cc2n[nH]c(=O)c3ccccc23)ccc1F)N1CCN(C(=O)C2CC2)CC1 [Olaparib] + COc1nnc2ccc(N3CCC(c4ccc(OCCN5CCN(C)C(=O)[C@H]5C)cc4)CC3)nn12 [AZD5153] (first compound max 10 µM, 7x7, partner max 1 µM)', 'Bliss excess', -0.135);

Reference source: the supplement of paper PMC11061612
